- System: HCMV TB40-IE2-YFP
- assay text: microbe, parasite or virus in culture
- Type: cell-based, human cytomegalovirus (HCMV)
- assay context: Human betaherpesvirus 5, 168 h
quantity: EC50 (nM)

>  <compound>
CN(C)C/C=C/C(=O)Nc1cc2c(Nc3ccc(F)c(Cl)c3)ncnc2cc1O[C@H]1CCOC1

>  <study system>
HCMV TB40-IE2-YFP

>  <unit symbol>
nM

>  <meas value>
800

$$$$

---

- System: HCMV ∆UL50-ΣUL53
- assay text: qPCR-based replication assay, HCMV ∆UL50-ΣUL53 in HFF-UL50 cells
- Format: cell-based
- assay context: Human betaherpesvirus 5, 336 h, +S-D (no pUL50 induction), 14 d p.i., qPCR
pEC50: −log10 of the molar value.
quantity: pEC50

>  <compound>
C=CC(=O)N1CCC[C@@H](n2nc(-c3ccc(Oc4ccccc4)cc3)c3c(N)ncnc32)C1

>  <meas value>
< 4.49

$$$$
